assay: Metabolic stability of the compound in rat microsomes assessed as compound remaining after 30 mins; format: ADME, Microsome; details: read-out: Stability
experimental_readout: remaining at 0.5 h (%)

* CCS(=O)(=O)c1ccc2oc(Nc3ccccc3C(F)(F)F)nc2c1 | 68
* CCS(=O)(=O)c1ccc2oc(Nc3ccccc3)nc2c1 | 53
* CCS(=O)(=O)c1ccc2oc(NC3CCCCC3)nc2c1 | 45
* CCOc1ccc(Nc2nc3cc(S(=O)(=O)C(C)C)ccc3o2)cc1 | 49
* CCOc1ccc(Nc2nc3ccc(NS(=O)(=O)C(C)(C)C)cc3o2)cc1 | 57

I = CCS(=O)(=O)c1ccc2oc(NC(C)(C)c3ccccc3)nc2c1
II = CCS(=O)(=O)c1ccc2oc(Nc3ccc(N4C[C@@H](C)O[C@@H](C)C4)cc3)nc2c1
Exam item: Short answer wanted: higher remaining at 0.5 h, I or II ? Which one? Tell me its label.
Marked response: II
(II: 85%, I: 35%)

P = CCS(=O)(=O)c1ccc2oc(Nc3ccc(C(F)(F)F)nc3)nc2c1
Q = CCOc1ccc(Nc2nc3cc(S(=O)(=O)C(C)(C)C)ccc3o2)cc1
R = C[C@@H]1CN(c2ccc(Nc3nc4ccc(NS(=O)(=O)C(C)(C)C)cc4o3)cc2)C[C@H](C)O1
Exam item: Rank order required: remaining at 0.5 h, descending. Respond with an ordered listing of the labels, as requested.
Marked response: P, R, Q

A = CCS(=O)(=O)c1ccc2oc(Nc3ccc(C(F)(F)F)cn3)nc2c1
B = CCS(=O)(=O)c1ccc2oc(Nc3cccc(C(F)(F)F)c3)nc2c1
C = CCS(=O)(=O)c1ccc2oc(NC3CCC(C(C)(C)C)CC3)nc2c1 (mixture of isomers)
Exam item: Sort the compounds on remaining at 0.5 h; start with the lowest figure. Respond with an ordered listing of the labels, as requested.
Marked response: C, B, A

P = CCS(=O)(=O)c1ccc2oc(Nc3ccc(Cl)cc3)nc2c1
Q = CCS(=O)(=O)c1ccc2oc(NCc3ccccc3)nc2c1
Exam item: Short answer wanted: higher remaining at 0.5 h, P or Q ? Which one? Tell me its label.
Marked response: P
